These entries and their values trace back to patent US20040037843A1.

test.system: HLA-A*0202 (human)
protocol: inhibition of 125I probe peptide binding to purified HLA, gel filtration
condition.description: remark: other sources report otherwise
reported.endpoint: IC50 (nM)
Kindly provide the numeric value in nM only, without the unit symbol.

In [3]: df
Out[3]:
                                     binder  obs_value
0    TLSVTWIGV [Peptide 60.0217 (PSA.5.V9)]        4.9
1  KVTKFMLCV [Peptide 60.0220 (PSA.187.V9)]        518
2    FLTLSVTWV [Peptide 60.0216 (PSA.3.V9)]        8.4

Query: // returns reported IC50 for input VVFLTLSVTWI [Peptide 1419.25 (PSA.1)]
Result: 159
